- test-summary: Toxicity liver stage against HepG2, at 10uM
- Assay type: cell-based
- Parameters: test concentration 10 uM, cell line HepG2-A16-CD81EGFP
- condition-summary: human, HepG2-A16-CD81EGFP cells; read-out: INHIBITION
readout-type: cytotoxicity at 10 µM (%)
Report only the number, with the unit % understood.

Please review the following examples before continuing.
C[C@@H]1CN(Cc2ccccc2F)CC(C(N)=O)O1 (some centres undefined) ... 1.95
Cn1cc(CN2CC[C@@H]3[C@@H]2CCN3C(=O)Cc2cccc(F)c2)cn1 ... -80
O=C1NCC2(CCC(C(=O)N3CCCC(O)C3)CC2)Oc2ccccc21 (centres undefined) ... -24.1
Cc1nc(CN2CCC3(C2)CN(C(=O)c2ccc[nH]2)C3)cs1 ... -112
CCc1csc(C2CCCN(C(=O)c3ccc4[nH]nnc4c3)C2)n1 (centres undefined) ... -17.1

// query I'd like to know its cytotoxicity at 10 µM. The molecule in question is Cc1occc(=O)c1OCc1noc(C(=O)NCC2CC2)n1
// result -2.51

// query Entry c1cnc(Nc2cc(CCC3CCNCC3)ccn2)cn1 please
// result 55.7

// query Entry Cc1cccc(CN2CC3(CCN(C(N)=O)CC3)OCC2=O)n1 please
// result 2.17

// query Entry CCN1CCCC(CN(C)c2nccc(-c3ccc(C)nc3C)n2)C1 (centres undefined) please
// result -13.5

// query Entry Cc1ccc(C(C)NCCc2nccn2Cc2ccccc2)o1 (centres undefined) please
// result 1.98

// query Entry Nc1cc(-c2c[nH]nc2C2CCCN2CCCc2ccccc2)ccn1 (centres undefined) please
// result 3.75

// query Entry COC(=O)C1CCN(C(=O)c2cc(Br)ccc2-n2cnnn2)CC1 please
// result 4.67

// query Entry CN(C)S(=O)(=O)NCc1cccnc1Oc1ccc(F)c(F)c1 please
// result 3.05

// query Entry Cc1ccc(Br)cc1C(=O)Nc1cc(C(N)=O)n(C)c1 please
// result 1.41

---

- test-summary: Toxicity liver stage against HepG2, at 10uM
- Format: cell-based
- Set-up: test concentration 10 uM, cell line HepG2-A16-CD81EGFP
- condition-summary: human, HepG2-A16-CD81EGFP cells; read-out: INHIBITION
Listing: cytotoxicity at 10 µM of selected compounds
Report only the number, with the unit % understood.

Please review the following examples before continuing.
CC(=O)N1CCCN(Cc2csc(-c3ncccn3)n2)CC1 ... 7.08
Cn1cc(CN2CCCN(C(=O)c3ccc4c(c3)COC4)CC2)cn1 ... -4.27
COC1CCN(C(=O)CCn2cccn2)CC1 ... -13.4
Cc1ccc(CNC(=O)CN2CCCC(Cn3cncn3)C2)s1 (configuration not stated) ... -1.78
C[C@@H]1CN(C2CCOC2)C[C@]12CCN(c1cccnc1)C2=O (some centres not stated) ... 7.49
O=C(O)[C@@H]1CN(C(=O)c2ccc3nccnc3c2)C[C@H]1c1ccncc1 ... -11.3

Now let's try a different one.
// query I'd like to know its cytotoxicity at 10 µM. The compound in question is O=C(NS(=O)(=O)c1ccc2c(c1)OCCO2)c1ccc(Br)cc1F
// result 0.553

---

Listing: cytotoxicity at 10 µM of selected compounds
- test-summary: Toxicity liver stage against HepG2, at 10uM
- Format: cell-based
- Parameters: test concentration 10 uM, cell line HepG2-A16-CD81EGFP
- condition-summary: human, HepG2-A16-CD81EGFP cells; read-out: INHIBITION
Report only the number, with the unit % understood.

Please review the following examples before continuing.
CC(C)(C)C(=O)NCCNc1cc(N2CCCC2)ncn1 ... -43
O=c1c2ccccc2nc2n1CCN(Cc1cccs1)CC2 ... 2.39
Fc1cccc2ncnc(NCCCc3ccncc3)c12 ... 7.02
CCc1nccn1C1CCCN(C(=O)c2cnn3cccnc23)C1 (configuration not stated) ... -18.2
CN1CCN(c2ccc(Br)cc2NC(=O)c2ccco2)CC1 ... -6.09

// query I'd like to know its cytotoxicity at 10 µM. The compound in question is CN1CCN(CC(NCc2ccc(F)c(F)c2)c2ccccc2)CC1 (configuration not stated)
// result -10

// query Entry CO[C@@H]1CCN(Cc2ccoc2)[C@H]1Cc1ccccc1 please
// result 7.46

// query Entry Cc1cc(NCCc2c[nH]cn2)nc(-c2cccnc2)n1 please
// result 2.49

// query Entry Cc1nc(CN2CCN(C(=O)c3cc(C4CC4)on3)CC2)cs1 please
// result 2.21

// query Entry O=C(NCCCO)C1(N2CCCCC2)Cc2ccccc2C1 please
// result -3.07

// query Entry CCOCC(=O)N1Cc2[nH]nc(COCC3CC3)c2C1 please
// result 9.29

// query Entry CCOc1ccc(NC(=O)c2cnc(N3CCCC3)nc2C)cc1 please
// result -7.81

---

Listing: cytotoxicity at 10 µM of selected molecules
- test-summary: Toxicity liver stage against HepG2, at 10uM
- Assay type: cell-based
- Parameters: test concentration 10 uM, cell line HepG2-A16-CD81EGFP
- condition-summary: human, HepG2-A16-CD81EGFP cells; read-out: INHIBITION
Report only the number, with the unit % understood.

Please review the following examples before continuing.
Cc1nc(N2CCOCC2)nc2c1COCC21CCN(CC(C)C)C1 (centres undefined) ... -128
CC(C)c1nccn1C1CCCN(C(=O)c2cn3cccnc3n2)C1 (centres undefined) ... -3.63

// query I'd like to know its cytotoxicity at 10 µM. The molecule in question is Cn1cc(N2CC3(CCN(C(=O)c4cccn4C)CC3)OCC2=O)cn1
// result -81.1

// query Entry Cc1cc(C(=O)O)cc(S(=O)(=O)Nc2ccc3c(c2)OCCO3)c1C please
// result -3.95

---

- test-summary: Toxicity liver stage against HepG2, at 10uM
- Type: cell-based
- Design: test concentration 10 uM, cell line HepG2-A16-CD81EGFP
- condition-summary: human, HepG2-A16-CD81EGFP cells; read-out: INHIBITION
readout-type: cytotoxicity at 10 µM (%)
Report only the number, with the unit % understood.

Please review the following examples before continuing.
CCc1nc(CN2CCCC(NCc3nc4ccccc4o3)C2)no1 (configuration not stated) ... -3.81
CC(C)C1CN(C(=O)c2ccncc2)CCS1 (configuration not stated) ... 9.72
Cc1ccc(C(=O)Nc2cn[nH]c2)cc1C ... 0.762
CN(C)C(C(=O)NC1(CO)CCCC1)c1ccc(F)cc1 (configuration not stated) ... -48.2

// query I'd like to know its cytotoxicity at 10 µM. The compound in question is COc1ccnc(CN2CCCC(CCc3ccc(F)cc3)C2)c1OC (configuration not stated)
// result 50.4

// query Entry Cc1cccnc1CC(C)N(C)C(=O)c1cccs1 (configuration not stated) please
// result -1.02

// query Entry CC(C)c1nnc(CN(C)C(c2ccc(F)cc2)c2cccnc2)o1 (configuration not stated) please
// result 4.11

---

- test-summary: Toxicity liver stage against HepG2, at 10uM
- Assay type: cell-based
- Parameters: test concentration 10 uM, cell line HepG2-A16-CD81EGFP
- condition-summary: human, HepG2-A16-CD81EGFP cells; read-out: INHIBITION
readout-type: cytotoxicity at 10 µM (%)
Report only the number, with the unit % understood.

// query I'd like to know its cytotoxicity at 10 µM. The compound in question is CN1CCOC(CNCc2coc(-c3cccs3)n2)C1 (configuration not stated)
// result -3.71

// query Entry CN(C)c1cc(C(=O)N2CCN(c3cc(C#N)ccn3)CC2)ccn1 please
// result -9.27

// query Entry CN1C[C@H](c2ccccc2)[C@H]2CN(C(=O)Cc3ccc(O)cc3)CC[C@H]21 please
// result 8.14

// query Entry O=C(CCn1ccnc1)N1CC[C@H](Oc2cccc(F)c2)[C@@H](O)CC1 please
// result -1.83

// query Entry Cc1cccc(N2CCN(C(=O)CNCCn3cccn3)CC2)c1 please
// result -6.16

// query Entry CC(C)=CCN1C(=O)[C@@H]2CC[C@H]1CN(c1ncccn1)C2 please
// result 9.14

// query Entry O=C1C(NCc2nnc3n2CCCC3)CCN1CC(F)(F)F (configuration not stated) please
// result -13.8

// query Entry CCC(CC)C(=O)N1CCN(Cc2cc(-c3ccncc3)nn2C)CC1 please
// result -27.9

// query Entry c1csc(CN(Cc2ccsc2)CC2CCCO2)n1 (configuration not stated) please
// result -1.32

// query Entry O=C1COC2(CCN(C(=O)c3ccco3)CC2)CN1Cc1ccccn1 please
// result 6.45

// query Entry CC(C)n1cnnc1C1CCCN(C(=O)COCc2ccccc2)C1 (configuration not stated) please
// result -20.3

---

- test-summary: Toxicity liver stage against HepG2, at 10uM
- Assay type: cell-based
- Parameters: test concentration 10 uM, cell line HepG2-A16-CD81EGFP
- condition-summary: human, HepG2-A16-CD81EGFP cells; read-out: INHIBITION
readout-type: cytotoxicity at 10 µM (%)
Report only the number, with the unit % understood.

CC(C(=O)NC1CC1)S(=O)(=O)c1cc2c(cc1Cl)OCCO2 (stereo unspecified) ... -13.9
Cc1cc(C)n(CC2CN(CC(=O)NC3CCOCC3)CCO2)n1 (stereo unspecified) ... -11.1
Cc1csc([C@H]2C[C@@H]3CCN(Cc4cc(C)on4)C[C@H]3O2)n1 ... -99.4

// query I'd like to know its cytotoxicity at 10 µM. The compound in question is Cc1ccccc1C(=O)N1CC[C@@H](N2CCC(O)CC2)[C@H](O)C1
// result 2.94

// query Entry O=c1cc(CNCc2ccc3c(c2)OCO3)nc2ccccn12 please
// result -6.17

// query Entry COc1ccccc1S(=O)(=O)N1CCC2(CC1)OCCCC2O (stereo unspecified) please
// result 0.0773
